I'd appreciate it if you could supply %Inh values for the items below.
# Test system: RET
# conditionsUsed: concentration: 1 μM, replicates: in singlicate; n = 1;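 further: KINOMEscan kinase panel screen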
Answers are plain numbers, in %.

compound: Nc1ncnc2c1nc(-c1ccccc1)n2-c1ccccc1
%Inh (%): 17
--
compound: CNC(=O)c1ccccc1Nc1nc(Nc2ccc(N3CCOCC3)cc2)ncc1Cl.Cl
%Inh (%): 100
--
compound: Cn1cc(-c2ccc3c(c2)CCN3C(=O)Cc2cccc(Cl)c2)c2c(N)ncnc21
%Inh (%): 27
--
compound: COc1cc(Nc2nccc(N3CCC(NC(=O)Nc4cccc(C(C)=O)c4)C3)n2)cc(OC)c1OC (centres unmarked)
%Inh (%): 0
--
compound: O=C(Nc1cccc(-c2nn3ccccc3c2-c2ccnc(Nc3cccc(F)c3)n2)c1)c1c(F)ccc(F)c1Cl
%Inh (%): 84
--
compound: CN1CCN(CCCNc2nccc(-c3c(-c4ccc(F)cc4)nn4cc(C(F)(F)F)ccc34)n2)CC1
%Inh (%): 0
--
compound: COC(=O)Nc1nc2cc(Oc3ccc(NC(=O)Nc4cc(C(F)(F)F)ccc4F)cn3)ccc2[nH]1.Cl.Cl
%Inh (%): 99.9
--
compound: O=C(Nc1cccc(Oc2ccc3nc(NC(=O)C4CC4)cn3n2)c1)c1ccccc1C(F)(F)F
%Inh (%): 99.9

Would you mind giving %Inh for every compound in the list below?
1. COc1cc(Nc2nccc(-c3c(-c4cccc(NC(=O)c5c(F)cccc5F)c4)nn4ccccc34)n2)cc(OC)c1OC
2. c1ccc(-c2n[nH]cc2Nc2ccnc3ccccc23)nc1
3. c1ccc(Oc2ccc(Nc3ccnc4cc(-c5ccc(CNCCN6CCOCC6)o5)ccc34)cc2)nc1
4. Nc1ncc(-c2cccnc2)c2scc(-c3ccc4c(c3)CCN4C(=O)Cc3ccccc3)c12
5. Cc1ccc(S(=O)(=O)Nc2ccc(Nc3nccc(Nc4cccc5[nH]ncc45)n3)cc2)cc1
6. O=C(O)C(F)(F)F.O=C(O)C(F)(F)F.O=c1[nH]ccc2nc(N[C@@H]3CCCNC3)nc(Nc3ccc(S(=O)(=O)N4CCOCC4)cc3)c12
7. COC(=O)Nc1nc2ccc(Oc3ccc(NC(=O)Nc4cc(C(F)(F)F)ccc4F)cc3)cc2n1C.Cl
8. Cc1occc1-c1ncc(OC[C@@H](N)Cc2c[nH]c3ccccc23)cc1-c1ccc2[nH]nc(C)c2c1.O=C(O)C(F)(F)F

OUT:
1. 29
2. 0
3. 5
4. 21
5. 8
6. 99.9
7. 99.5
8. 84

IN: Indicate the recorded %Inh value for this compound: Cn1cc(-c2[nH]c3cc(NC(=O)[C@H](N)C4CCCCC4)cc4c3c2C=NNC4=O)cn1
OUT: 100

* * *

# Test system: MAK
# conditionsUsed: concentration: 1 μM, replicates: in singlicate; n = 1
Class boundaries, taken from values of %Inh, are as follows: A: < 3%; B: ≥ 3% and < 20%; C: ≥ 20%

IN: Into which category would you place Cc1cccc(Nc2nc(N[C@H]3CCNC3)ncc2C(N)=O)c1.Cl ?
OUT: B

* * *

# System: PAK2
# conditionsUsed: concentration: 1 μM, replicates: in singlicate; n = 1
Threshold 20%: %Inh strictly smaller gives MET, otherwise NOT MET.

Take a look at these entries with their results.
substanceSmiles: O=C(Nc1n[nH]c2nc(-c3ccc(O)cc3)ccc12)C1CC1
classification: NOT MET

substanceSmiles: COc1cc(Nc2ncc3c(C)nc(-c4cc5ccccc5[nH]4)n3n2)cc(OC)c1OC
classification: NOT MET

substanceSmiles: Cl.c1ccc(-c2ccc3c(Nc4ccc5[nH]ccc5c4)ccnc3c2)nc1
classification: MET

substanceSmiles: Cc1cccc(NC(=O)Nc2ccc(Oc3ncnc4ccn(C)c34)cc2)c1
classification: MET

substanceSmiles: CN1CCN(CCCNc2nccc(-c3c(-c4ccc(F)cc4)nn4cc(C(F)(F)F)ccc34)n2)CC1
classification: MET

IN: Record Fc1ccc(-c2ncn(C3CCNCC3)c2-c2ccnc(Oc3ccc(-c4ccccc4)cc3)n2)cc1 : is its %Inh strictly below 20%?
OUT: MET

IN: Could you please tell me whether %Inh recorded for CN(c1ccc(NC(=O)Nc2cc(C(F)(F)F)ccc2F)cc1)c1ccnc(Nc2ccc(S(N)(=O)=O)cc2)n1 is less than 20%?
OUT: MET

IN: # TODO verify %Inh < 20% strictly for this molecule: Cc1ccc(C(=O)N2CC[C@@H](O)C2)cc1-n1c(C)cc(OCc2ccc(F)cc2F)c(Br)c1=O
OUT: MET
